experiment: Human HepG2 cell viability assay in 384 well format; format: toxicity, cell-based; set-up: dose 125 nL, time 70.5 hour; concentration not given beside the values; conditions: HepG2 cells, read-out: Inhibition
Below, each entry is listed with its recorded cytotoxicity at 70.5 h.
Property Label: cytotoxicity at 70.5 h (%)

Fc1cnc(NCC2Cn3nnc(-c4ccccc4)c3CO2)nc1 (centres undefined)
24.4
CN(Cc1ccccn1)C(=O)Nc1cc(C(F)(F)F)c[nH]c1=O
-1.8
CCn1cc(NC(=O)NCc2ccc3c(c2)OCO3)cn1
-1.53
CCC(C)(C)NC(=O)Cn1nc(C)nc1-c1ccccc1
-0.158
CC(=O)c1cn(CC(=O)N2CCC3(CC2)OCCO3)c2ccccc12
-5.36
Cc1cc(C(=O)N2CCC(c3nccn3CCCN(C)C)CC2)no1
0.885
CN(Cc1nc(N2CCCC2)ncc1-c1ccncc1)C(=O)C(C)(C)C
-2.37
Cc1cc(C)n(CCCN(C)C(=O)[C@H]2CCCO2)n1
-14.9
CCOCCCNCc1cc(O)c2cc(C)ccc2n1
22.7
Cc1nc(CNC(=O)NC(C)c2ccc3c(c2)OCCCO3)cs1 (centres undefined)
-0.884
CC(C)NC(=O)NCCn1nc(C(F)(F)F)n(C)c1=O
-4.05
Cc1nc(CN2CCC(N(C)Cc3nnc(C4CC4)n3C)C2)oc1C (centres undefined)
10.4
C[C@H]1C[C@H]2CN(C(=O)CC3CC3)CC[C@H]2O1
-7.47
CC(C)c1nc(C2CCCN(C(=O)c3cccc4c3OCO4)C2)no1 (centres undefined)
-1.62
Cc1nc(C)n(CC2CCCN2Cc2nc(-c3ccccn3)no2)n1 (centres undefined)
-7.25
c1cc2n(n1)CC(CNCc1ccc(OC3CCCC3)nc1)CN2 (centres undefined)
-14.1
CC(C)n1nc2c(cc1=O)CN(CCOc1ccc(C#N)cc1)CC2
-12.5
COc1ccc(C2CC(=O)c3c(O)cc(O)cc3O2)cc1O (centres undefined)
-9.21
CNC(=O)N1CC[C@@H]2CN(Cc3ccccc3)S(=O)(=O)[C@@H]2CC1
-6.18
O=C(NS(=O)(=O)c1cc(Cl)sc1Cl)c1cccc2c1OCCO2
1.61
Cc1nc(C)n(CC2CCCCN2CCOc2cccc(C#N)c2)n1 (centres undefined)
-7.98
Cc1ccc2nc(CN(C)Cc3ccc(C)o3)cc(=O)n2c1
-15
CCOc1ccc(N(CCC#N)C(=O)c2ccc(SC)nc2)cc1
-4
Cc1ccc(C(=O)N2CCCCC2CNC(N)=O)s1 (centres undefined)
-6.25

###

assay: Human HepG2 cell viability assay in 384 well format; type: toxicity, cell-based; parameters: dose 125 nL, time 70.5 hour; concentration not given beside the values; conditions: HepG2 cells, read-out: Inhibition
Property Label: cytotoxicity at 70.5 h (%)

OC(CNC1CCOCC1)c1cccc(OCc2ccccc2)c1 (configuration not stated)
-10.5
O=C(NC1CC1)N1CC[C@H]2[C@H]1CCN2c1nncs1
6.09
COCCC1(CNC(=O)Nc2ccc(-n3nccn3)cc2)CCC1
13.3
O=C(c1ccc(-c2cccc3c2CCNC3)o1)N1CCOCC1
-6.54
c1cc(N2CCC3(COCc4cnc(NCC5CC5)nc43)C2)ncn1 (configuration not stated)
32.2
N#CC1(C(=O)N2CCOC(c3ccc(F)cc3)C2)CCCC1 (configuration not stated)
-15.9
Cc1noc(-c2ccc(N3CCCC(C(N)=O)C3)nc2)n1 (configuration not stated)
-0.883
CCc1ccc(CN(C)Cc2nc(COc3ccccc3)no2)nc1
-7.21
CC(C)C1CN(Cc2cnc(N(C)C)nc2)CCCN1CC1CC1 (configuration not stated)
-10
CC(C)(CO)Nc1cc(-c2ccccc2)ncn1
-2.92
Cc1ccc(N2CCCC(NCc3cc(C)on3)C2)nn1 (configuration not stated)
-3.47
CN(CC1COc2ccccc2O1)C(=O)C1=NN(C)C(=O)CC1 (configuration not stated)
8.57

###

assay: Human HepG2 cell viability assay in 384 well format; format: toxicity, cell-based; design: dose 125 nL, time 70.5 hour; concentration not given beside the values; details: HepG2 cells, read-out: Inhibition
Collected cytotoxicity at 70.5 h values appear next to each entry.
Property Label: cytotoxicity at 70.5 h (%)

O=C1CC(NS(=O)(=O)NCc2ccccc2)CN1c1ccccc1Cl (stereo unspecified)
5.29
CCN1C[C@@H]2[C@@H](OC)CCN(S(=O)(=O)c3ccccc3)[C@@H]2C1
3.99
O=C(CC1CC1)N1CCC2(CC(=O)N(c3cccc(F)c3)C2)C1 (stereo unspecified)
-6.99
Cc1cc(C)n(-c2cncc(NCCNC(=O)C(C)(C)C)n2)n1
-9.22
CC(NCc1ccncc1)c1cc2c(cc1Br)OCCO2 (stereo unspecified)
-4.83
CN(Cc1cnn(C)c1)C(=O)C1COCC(=O)N1Cc1ccccc1 (stereo unspecified)
-4.96
CS(=O)(=O)NCCC1CCCCN1C(=O)NCc1ccccn1 (stereo unspecified)
-18.6
CS(=O)(=O)N[C@@H]1CN(Cc2ccc3ncccc3c2)C[C@H]1O
-5.91
CNC(=O)NCC(=O)Nc1ccccc1N1CCc2ccccc21
-3.43
Cc1cc(C(=O)N2CCC3(CC2)CN(CCN(C)C)C(=O)O3)nc(C)n1
-6.56
CN1CCC(N(C)C[C@H]2CC[C@@H](Cc3ccc4c(cnn4C)c3)O2)CC1
-7.57
COc1c(CNC2CCc3c(F)cccc32)c(C)nn1C (stereo unspecified)
-7.24
O=C(NC1CCCCNC1=O)c1cc2ccccc2[nH]c1=O (stereo unspecified)
-15.7
Cc1noc(C)c1CN1C[C@@H](NS(=O)(=O)N(C)C)[C@H](C(C)C)C1
-8.39
CCn1ccnc1CN1CCN(C(C)C(=O)N2CCCCCC2)CC1 (stereo unspecified)
-1.03
CCC(=O)N1CCC(c2cc(Nc3ncccn3)nc(C)n2)C1 (stereo unspecified)
-10.9
CCCc1cnc(C)nc1N1CCC(Cn2cc(CO)nn2)CC1
-3.5
Cn1cccc1C(=O)N[C@@H]1CN(Cc2ccsc2)[C@@H]2COC[C@@H]21
-10.2
O=C(N[C@@H]1CCNC[C@H]1O)c1ccccc1OC(F)(F)C(F)F
0.818
CCn1ncnc1C(C)Nc1cc(C2CCNCC2)nc(C)n1 (stereo unspecified)
26.8
CCn1cc(-c2cc(-c3cc(CC(=O)O)cs3)nc(N)c2C#N)c(C)n1
-0.397
COc1ccc(NC(=O)CCC2CCCN(Cc3ncon3)C2)c(C)c1 (stereo unspecified)
-4.69
COCCN1C(=O)CO[C@H]2CN(Cc3ccccc3OC)C[C@H]21
-13.3
Cc1nc(C)c(C(=O)N2Cc3ccccc3OCC2CN(C)C)o1 (stereo unspecified)
1.45
Cc1cccc2c1C(=O)NC(c1cnc(C3CCC3)s1)N2 (stereo unspecified)
-21.1
CCN(CCN1CCCCCC1)C(=O)c1cnc(-c2cccnc2)nc1
-2.81
Cn1ncc2c1C(COCC1CC1)CN(Cc1ccsc1)C2 (stereo unspecified)
2.88
CC(=O)N1CCN(Cc2ccsc2)CC2(CC(=O)N(C)C2)C1 (stereo unspecified)
-12.2
COc1ncccc1CNC(=O)NC1CCOc2ccccc21 (stereo unspecified)
-13.3
O=C(NCCc1noc(C2CCCO2)n1)c1cn2ccsc2n1 (stereo unspecified)
-4.56
CN1C(=O)C(c2cccnc2)CC12CCN(C(=O)c1ccc[nH]1)CC2 (stereo unspecified)
15.4
CCOCCCC(=O)N1CCCC1c1nc(-c2ccccc2F)c[nH]1 (stereo unspecified)
-2.77
CC(c1ccc2c(c1)OCCO2)N(C)C(=O)c1ccnnc1 (stereo unspecified)
-5.69
CC(=O)N1CCC2(C1)c1ccccc1S(=O)(=O)N2C (stereo unspecified)
-7.77
CCOc1ncccc1CNC(=O)Nc1ccccc1
16.2
CC(Cn1cccn1)NC(=O)CCc1ccc(S(N)(=O)=O)cc1 (stereo unspecified)
-15.1
CCN(CC)Cc1cc(=O)n2c(n1)CN(C(=O)c1ccnnc1)CCC2
-3.81
CCN1CCN(c2ccc(NC(C)c3nc(C(C)C)no3)c(C)c2)CC1 (stereo unspecified)
-12.5
Cc1csc(N2CCN(Cc3nnsc3Cl)CC2C)n1 (stereo unspecified)
-16
CO[C@H]1CCN(Cc2cnn(C)c2)[C@@H]2CN(Cc3cccnc3)C[C@H]12
-25.8
Cc1ccc(C(O)CN(C)Cc2cnn(C)c2)cc1C (stereo unspecified)
-1.99
O=C(c1cccnc1)N1CCC2(CC1)COCCN(c1ncccn1)C2
-9.03
O=C(CCC(=O)N1CCC(OCc2cccnc2)CC1)c1ccccc1
-1.13
CC(O)CCN(C)C(=O)Nc1ccc(Br)cc1 (stereo unspecified)
26.9
CCc1nnc2n1CCN(C(=O)c1cc3ccc(F)cc3nc1C)C2
-3.67
O=C(NCC1CCOCC1)[C@@H]1C[C@@H]2[C@@H](CCN2Cc2nccs2)O1
-12.1

###

experiment: Human HepG2 cell viability assay in 384 well format; assay type: toxicity, cell-based; parameters: dose 125 nL, time 70.5 hour; concentration not given beside the values; settings: HepG2 cells, read-out: Inhibition
Property Label: cytotoxicity at 70.5 h (%)

Cc1ccc(OCc2cccc(C(=O)N(C)CCC#N)c2)cn1
0.941
CN1CCN2C(=O)N(C3CCCCC3)C[C@H]2C1
-5.56
CC(C)CNC(=O)[C@H]1C[C@@H]2CN(C(=O)NCCc3ccccc3)C[C@H]1O2
-10.9
CN(C)c1cc(CNC(=O)C2COc3ccccc3O2)ccn1 (stereo unspecified)
-6.63
CC(OCC(F)(F)F)C(=O)N1CCN(S(C)(=O)=O)CC1 (stereo unspecified)
-1.69
CSc1ccc2cc(CN(C)CCc3cn[nH]c3)c(=O)[nH]c2c1
2.27

This collection of values is drawn from ChEMBL document CHEMBL3507680.
